Organism: Rattus norvegicus
TEST NAME: Inhibition of rat recombinant geranylgeranyltransferase type I expressed in Escherichia coli assessed as residual enzyme activity for geranylgeranylation of K-Ras4B at 50 uM incubated for 30 mins in presence of [3H]GGPP by scintillation counting assay relative to control
Note to self: class labels come from recorded Activity, ranges listed here: lower bin (below 60%), middle bin (60% to below 70%), upper bin (70% or more)

1. Cc1ccc([C@@H]2CC=C(C(=O)O)[C@H](c3cccc(Cl)c3)N2S(=O)(=O)c2ccccc2C)cc1 middle bin
2. CCCCS[C@@H]1C[C@@H](c2ccc(OCC)cc2)N(S(=O)(=O)c2ccc(C)cc2)C[C@H]1C(=O)O middle bin
3. COc1ccc([C@@H]2CC=C(C(=O)O)[C@H](c3ccc(Br)cc3)N2S(=O)(=O)c2ccccc2C)cc1 middle bin
4. CCc1ccc([C@@H]2C[C@@H](SCc3ccc(C(C)(C)C)cc3)[C@H](C(=O)O)CN2S(=O)(=O)c2ccc(C)cc2)cc1 middle bin
5. COc1ccc([C@@H]2C[C@@H](Sc3ccc(Cl)cc3)[C@H](C(=O)O)CN2S(=O)(=O)c2ccc(Cl)cc2)cc1 upper bin
6. Cc1ccc([C@@H]2CC=C(C(=O)O)[C@H](c3ccc(Cl)cc3)N2S(=O)(=O)c2ccccc2C)cc1 upper bin
7. COc1ccc([C@@H]2CC=C(C(=O)O)[C@H](c3cccc(Cl)c3)N2S(=O)(=O)c2ccccc2)cc1 lower bin
8. Cc1ccc(S(=O)(=O)N2[C@@H](c3cccc(Br)c3)C(C(=O)O)=CC[C@H]2c2cccs2)cc1 lower bin
9. COc1ccc([C@@H]2C[C@@H](Sc3ccc(Cl)cc3)[C@H](C(=O)O)CN2S(=O)(=O)c2ccccc2C)cc1 upper bin
